target: T1, hCMV gB (expressed in HEK293T cells) (human cytomegalovirus, UniProt P06473 32-906); assay: competitor: 5F1-biotin; cell staining
T1 construct: whole, on cells; also called envelope glycoprotein B; UL55
T1 sequence (P06473 32-906 limits assumed): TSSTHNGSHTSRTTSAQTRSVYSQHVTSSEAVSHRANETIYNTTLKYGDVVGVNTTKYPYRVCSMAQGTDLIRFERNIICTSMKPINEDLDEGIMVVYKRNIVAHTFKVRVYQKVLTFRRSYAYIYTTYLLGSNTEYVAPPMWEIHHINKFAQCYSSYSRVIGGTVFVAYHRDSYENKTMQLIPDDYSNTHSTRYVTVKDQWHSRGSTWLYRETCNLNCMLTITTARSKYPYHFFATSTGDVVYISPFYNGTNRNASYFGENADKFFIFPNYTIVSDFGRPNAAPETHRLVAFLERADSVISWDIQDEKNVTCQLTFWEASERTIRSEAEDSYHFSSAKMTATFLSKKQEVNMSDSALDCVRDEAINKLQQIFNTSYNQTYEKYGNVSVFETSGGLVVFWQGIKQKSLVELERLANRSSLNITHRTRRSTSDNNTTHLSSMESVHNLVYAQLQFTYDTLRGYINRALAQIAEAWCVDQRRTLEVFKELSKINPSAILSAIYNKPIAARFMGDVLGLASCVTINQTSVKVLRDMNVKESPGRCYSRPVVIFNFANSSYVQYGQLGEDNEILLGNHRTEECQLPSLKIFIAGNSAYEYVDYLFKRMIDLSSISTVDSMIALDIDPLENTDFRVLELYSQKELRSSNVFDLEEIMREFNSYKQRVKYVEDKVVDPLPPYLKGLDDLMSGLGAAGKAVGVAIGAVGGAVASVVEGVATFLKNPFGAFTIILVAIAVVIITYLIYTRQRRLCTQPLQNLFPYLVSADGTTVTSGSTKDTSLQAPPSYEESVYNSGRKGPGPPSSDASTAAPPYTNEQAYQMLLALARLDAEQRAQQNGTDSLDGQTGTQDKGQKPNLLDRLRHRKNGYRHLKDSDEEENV
Observed property: Inhibition of binding (%)
Please answer using a numeric value trailed by its unit.

Enquiry: Which Inhibition of binding (%) value belongs to 6B4 (antibody, V domains shown, human IgG; also called 6B4-biotin) VH: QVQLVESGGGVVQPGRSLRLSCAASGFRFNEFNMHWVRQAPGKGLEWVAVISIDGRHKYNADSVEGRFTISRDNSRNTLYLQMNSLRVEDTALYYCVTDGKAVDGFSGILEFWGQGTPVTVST VL: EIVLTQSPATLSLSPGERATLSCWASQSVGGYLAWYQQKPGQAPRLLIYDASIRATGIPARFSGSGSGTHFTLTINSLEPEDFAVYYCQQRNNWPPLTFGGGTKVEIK ?
Return: 0%

Enquiry: Which Inhibition of binding (%) value belongs to 7H3 (antibody, V domains shown, human IgG; also called 7H3-biotin) VH: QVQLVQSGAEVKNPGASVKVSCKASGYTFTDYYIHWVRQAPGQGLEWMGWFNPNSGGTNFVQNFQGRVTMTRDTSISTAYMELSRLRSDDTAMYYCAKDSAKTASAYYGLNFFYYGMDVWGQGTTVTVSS VL: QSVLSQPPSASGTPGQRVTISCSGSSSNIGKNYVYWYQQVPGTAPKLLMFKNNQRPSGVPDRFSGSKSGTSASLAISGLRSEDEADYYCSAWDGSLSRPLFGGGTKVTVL ?
Return: 0%

Enquiry: Which Inhibition of binding (%) value belongs to 2B11 (antibody, V domains shown, human IgG; also called 2B11-biotin) VH: AVRLVESGGGLAQPGRSLRLSCQVSGFTFGSYEMNWVRQAPGKGLEWIAYIDFTGSTIYYADSVKGRFTISRNTARNSLYLQMNSLRVEDTAVYYCVRDAGRWGTSWYYFDYWGQGTRVTVSP VL: QSVLTQPPSVSGAPGQRVTISCTGISSNIGAGYDIHWYQQIPGKAPKLLVYGNNNRPSGVPDRFSGSKSGTSVSLAITGLQVEDEADYYCQSYDNSLNGWVFGGGTRLTVL ?
Return: 100%
